// provenance: PubChem BioAssay (NCI)

Test system: HCT-116 colon
Assay: NCI-60 one-dose screen, 48 h
Conditions: 10 µM unless noted
Compounds without any hit were thinned out: in the full panel of roughly 83,000, 20% have a hit. Activity calls are given as the source filed them. The calls were made as follows: active = growth percent below 10; inactive = the rest.
Outcome codes: YES (active), NO (inactive)

{"substanceSmiles": "NC(=O)C(=Cc1ccc(Cl)cc1)C(N)=O", "label": "NO"}
{"substanceSmiles": "Cn1cc(-c2nn3cc(-c4cccnc4)nc3s2)c2cc(F)ccc21", "label": "NO"}
{"substanceSmiles": "O=C(NNc1nc2cc(F)cc(F)c2n2cccc12)c1ncccn1", "label": "NO"}
{"substanceSmiles": "O=[N+]([O-])c1ccc(-c2nnc(SCc3ccc(O)c4ncccc34)n2-c2ccccc2)cc1", "label": "NO"}
{"substanceSmiles": "CS(=O)(=O)c1nccc(-c2c(-c3ccc(F)c(OCc4ccccc4)c3)nc3sccn23)n1", "label": "NO"}
{"substanceSmiles": "O=C1Nc2ccc(Br)cc2/C1=N\\c1nnc(-c2ccc(Cl)cc2)o1", "label": "NO"}
{"substanceSmiles": "CC1=CC(=O)CC(C)(C)[C@@]1(O)/C=C/C(C)=C\\C(=O)O", "label": "YES"}
{"substanceSmiles": "CN1CCN(c2ccc(NC(=O)Nc3ccc4c(ccn4-c4cccc(C(N)=O)n4)c3)cc2C(F)(F)F)CC1", "label": "NO"}
{"substanceSmiles": "Cn1cc(-c2nn3c(=O)cc(-c4ccccc4)nc3s2)c2cc(F)ccc21", "label": "NO"}
{"substanceSmiles": "N#Cc1ccc(S(=O)(=O)Nc2ccc(-c3cnc(N)[nH]3)cc2)cc1", "label": "NO"}
{"substanceSmiles": "COc1cc(/C=N/Nc2ccnc3cc(Cl)ccc23)cc(OC)c1O", "label": "YES"}
{"substanceSmiles": "COc1ccc(OC)c([C@H]2c3[nH]c4ccccc4c3C[C@H]3C(=O)N(CCCCCCC(=O)NO)CC(=O)N23)c1", "label": "NO"}
{"substanceSmiles": "O=C(NCCNc1cc(-c2cn(-c3ccccc3)nc2-c2cccc(O)c2)ccn1)Nc1ccc(Cl)c(C(F)(F)F)c1", "label": "NO"}
{"substanceSmiles": "COc1cc(/C=C/C(=O)c2ccc(NC(=O)COc3cccc4cccnc34)cc2)cc(OC)c1OC", "label": "NO"}
{"substanceSmiles": "Cn1cc(-c2nnc(N)nc2-c2cn(C)c3ccc(F)cc23)c2cc(F)ccc21", "label": "NO"}
{"substanceSmiles": "c1ccc(-c2c(-c3ccccc3)[n+](Cc3ccc4ccccc4c3)c(-c3ccccc3)n2Cc2ccc3ccccc3c2)cc1", "label": "YES"}
{"substanceSmiles": "COc1cc(/C=N/n2cnc3oc(-c4ccccc4)cc3c2=N)cc(CN2CCCC2)c1O", "label": "YES"}
{"substanceSmiles": "CCCCCCNC(=O)Oc1ccc(/C(=C(/C)c2ccc(Cl)cc2)c2ccc(OCCN3CCCC3)cc2)cc1", "label": "YES"}
{"substanceSmiles": "COc1ccc(/C(C)=C(\\c2ccc(Cl)cc2)c2ccc(OCCN)cc2)cc1", "label": "NO"}

###

System: MOLT-4 leukemia
Test: NCI-60 one-dose screen, 48 h (100 = growth as untreated, 0 = no growth, -100 = all killed)
Settings: 10 µM unless noted
About 83,000 compounds went through this panel and 20% of them were active in at least one assay; those are over-represented in the sample as a whole.
# growth annotations

{"substanceSmiles": "O=C(O)c1ccc(-n2cc(CNc3ccc(F)cc3)c(-c3ccc(C(F)(F)F)cc3)n2)cc1", "studyTarget": "MOLT-4 leukemia", "u": "%", "growth": 81}
{"substanceSmiles": "COc1ccc(-c2cc(-c3cccc4ccccc34)n3c(n2)nc2ccccc23)cc1", "studyTarget": "MOLT-4 leukemia", "u": "%", "growth": 2.23}
{"substanceSmiles": "CCCCCCNC(=O)Oc1ccc(/C(=C(/C)c2ccccc2)c2ccc(OCCN(C)C)cc2)cc1", "studyTarget": "MOLT-4 leukemia", "u": "%", "growth": 34.7}
{"substanceSmiles": "O=C(/C=C1\\C=CN(CCCCF)c2ccccc21)n1ccc2ccccc21", "studyTarget": "MOLT-4 leukemia", "u": "%", "growth": 105}
{"substanceSmiles": "O=c1oc2ccc(-c3ccc(F)cc3F)cc2c(=O)n1-c1cccc(C(F)(F)F)c1", "studyTarget": "MOLT-4 leukemia", "u": "%", "growth": 5.65}
{"substanceSmiles": "CC1CCN(S(=O)(=O)c2ncsc2-c2ccccc2)CC1", "studyTarget": "MOLT-4 leukemia", "u": "%", "growth": 66.7}
{"substanceSmiles": "CS(=O)(=O)c1ccc2c(c1)c1c(n2S(=O)(=O)c2ccc(Cl)cc2)CCCC1", "studyTarget": "MOLT-4 leukemia", "u": "%", "growth": 24.4}
{"substanceSmiles": "CN1CCN(Cc2ccc(NC(=O)c3cncc(C#Cc4[nH]nc5ncncc45)c3)cc2C(F)(F)F)CC1", "studyTarget": "MOLT-4 leukemia", "u": "%", "growth": 47.2}
{"substanceSmiles": "COc1cc(/C=N/n2cnc3oc(-c4ccccc4)cc3c2=N)cc(CN2CCOCC2)c1O", "studyTarget": "MOLT-4 leukemia", "u": "%", "growth": 52.9}

###

Tested on: EKVX NSCLC
Experiment: NCI-60 one-dose screen, 48 h (100 = growth as untreated, 0 = no growth, -100 = all killed)
Conditions: 10 µM unless noted
The panel holds about 83,000 compounds, 20% with a hit somewhere; the sample as a whole holds those more often.

{"compound": "O=S(=O)(Nc1ccc2c(c1)OC(F)(F)O2)c1ccc(-c2cnc(C3CC3)o2)cc1", "u": "%", "growth": 58}
{"compound": "CCN1CCN(Cc2ccc(C(=O)Nc3nc4ccc(Oc5ccnc(C(=O)NC)c5)cc4s3)cc2C(F)(F)F)CC1", "u": "%", "growth": 52.4}
{"compound": "O=C1c2c(c3c4ccc(Br)cc4oc3c3[nH]c4ccccc4c23)C(=O)N1CCO", "u": "%", "growth": 53.7}
{"compound": "CN1C(=O)N(C)C2C1NN=c1s/c(=C\\c3ccccn3)c(=O)n12 (stereo not drawn)", "u": "%", "growth": 99.4}
{"compound": "C#C[C@]1(O)CC[C@H]2[C@@H]3CC=C4c5sc(Nc6cccc(Cl)n6)nc5CC[C@]4(C)[C@H]3CC[C@@]21C", "u": "%", "growth": 1.89}
{"compound": "COc1ccc([C@H]2[C@H](O)C(=O)N2c2cc(OC)c(OC)c(OC)c2)cc1O", "u": "%", "growth": 51.2}
{"compound": "O=C1[C@H]2Cc3c([nH]c4ccccc34)[C@@H](c3c(Cl)cccc3Cl)N2C(=O)CN1C1CCN(Cc2ccccc2)CC1", "u": "%", "growth": 96.2}
{"compound": "CNC(=O)c1cc(Oc2ccc3nc(NC(=O)c4cccc(C(F)(F)F)c4)sc3c2)ccn1", "u": "%", "growth": 101}
{"compound": "COc1ccc2oc3c4[nH]c5ccccc5c4c4c(c3c2c1)C(=O)N(O)C4=O", "u": "%", "growth": 97.8}
{"compound": "O=C(CSc1ccc(-c2nc3ccccc3[nH]2)cn1)N1CCN(c2ccccc2F)CC1", "u": "%", "growth": 53.6}
{"compound": "COc1cc(/C=N/n2cnc3oc(-c4ccccc4)cc3c2=N)cc(CN2CCCC2)c1O", "u": "%", "growth": 97}
{"compound": "COc1c([C@@H](CC(C)C)OC(C)=O)ccc2c1C(=O)OCc1cc(C)cc(O)c1O2", "u": "%", "growth": 37.6}
{"compound": "CCOC(=O)Nc1ccc(-c2nc(-c3cccc(O)c3)c(-c3ccnc(Br)c3)[nH]2)cc1", "u": "%", "growth": 44.2}
{"compound": "COc1ccc(/C=N/Nc2nc(N/N=C/c3ccc(OC)cc3O)nc(N3CCOCC3)n2)c(O)c1", "u": "%", "growth": 46.6}
{"compound": "CCC(=O)Nc1cc(Nc2cc(NC3CC3)n3ncc(C#N)c3n2)ccc1C", "u": "%", "growth": 39.1}
{"compound": "COc1ccc(/C(C)=C(\\c2ccc(Cl)cc2)c2ccc(OCCN)cc2)cc1", "u": "%", "growth": 87.2}
{"compound": "O=C(O)c1ccc(-n2cc(CNc3ccc(Cl)cc3)c(-c3ccc(F)cc3)n2)cc1", "u": "%", "growth": 81.1}
{"compound": "COC[C@@]1(C)CC[C@]2(C)CC[C@]3(C)C(=CC[C@@H]4[C@@]5(C)CCCNC(C)(C)[C@@H]5CC[C@]43C)C2C1 (stereo partly drawn)", "u": "%", "growth": 76.9}

###

System: CCRF-CEM leukemia
Experiment: NCI-60 one-dose screen, 48 h
Settings: 10 µM unless noted
Compounds without any hit were thinned out: in the full panel of roughly 83,000, 20% have a hit. The source made the active and inactive calls. Rule for the calls: active = growth percent below 10; inactive = the rest.
Outcome codes: YES for active, NO for inactive

{"compound": "COc1ccc(/C=C/C(=O)c2nnn(-c3ccc(C(=O)O)cc3)c2C)cc1OC", "label": "NO"}
{"compound": "CC(C)(C)CC(C)(C)n1nnnc1C(Nc1ccccc1)c1cc2cccc3ccc4cccc1c4c32 (centres undefined)", "label": "NO"}
{"compound": "COc1ccc(-c2nnc(/N=C3/C(=O)Nc4ccc(Br)cc43)o2)cc1", "label": "NO"}
{"compound": "COc1cc2c3c(n(CCCNC4CCCC4)c(=O)c2cc1OC)-c1cc2c(cc1C3=O)OCO2", "label": "YES"}
{"compound": "O=C1NC(=O)/C(=C/c2ccc(OCc3cc4ccccc4nc3Cl)cc2)S1", "label": "NO"}
{"compound": "Cc1cn(-c2cc(NC(=O)c3cncc(C#Cc4cnc5ccc(OCCCS(C)(=O)=O)nn45)c3)cc(C(F)(F)F)c2)cn1", "label": "YES"}
{"compound": "COc1ccc(OC)c(NC2=C(Cl)C(=O)C(C)=C(C)C2=O)c1", "label": "NO"}
{"compound": "Cc1ccc(-n2cc(/C=C/C(=O)c3ccc(S(C)(=O)=O)cc3)c(-c3ccc(S(C)(=O)=O)cc3)n2)cc1", "label": "NO"}
{"compound": "C=CCn1c(SCC(=O)Nc2cccc(C(=O)/C=C/c3ccccc3Cl)c2)nc2ccccc2c1=O", "label": "NO"}
